STUDY TARGET: human MER (528-end) (Homo sapiens)
Construct: human MER (528-end); purchased Camnabio, Japan
Sequence (Q12866 528-999 limits assumed): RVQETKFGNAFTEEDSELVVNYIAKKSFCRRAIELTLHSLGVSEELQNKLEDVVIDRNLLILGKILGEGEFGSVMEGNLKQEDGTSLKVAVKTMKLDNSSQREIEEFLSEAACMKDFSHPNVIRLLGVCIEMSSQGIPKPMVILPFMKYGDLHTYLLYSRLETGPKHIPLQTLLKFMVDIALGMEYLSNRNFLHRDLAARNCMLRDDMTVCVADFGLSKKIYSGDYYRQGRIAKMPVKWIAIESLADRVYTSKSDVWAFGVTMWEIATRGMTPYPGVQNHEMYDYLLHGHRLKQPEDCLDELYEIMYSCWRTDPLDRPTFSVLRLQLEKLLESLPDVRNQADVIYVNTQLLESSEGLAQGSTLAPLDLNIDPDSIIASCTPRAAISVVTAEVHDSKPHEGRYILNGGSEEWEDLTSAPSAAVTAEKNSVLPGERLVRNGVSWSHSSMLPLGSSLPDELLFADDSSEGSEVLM
METHOD: HTRF kinase activity biochemical assay, MER
CONDITION INFO: 10 μM ATP, 30 minutes pre-incubation; read-out: HTRF MERTK IC50
pIC50: −log10 of the molar value.
For each of the compounds below, state its pIC50.

Recorded pIC50, per entry:
compound="Cc1csc(-c2cnc(N)c(C(=O)N[C@H]3CCC[C@@H]3OCc3ccc(-c4ccc5c(c4)CC[C@@H]5N4CCN(CCO)CC4)cc3)c2)n1 [Example 181]" result="> 8.00"
compound="Cn1cc(-c2cnc(N)c(C(=O)N[C@H]3CCC[C@@H]3OCc3ccc(-c4ccc5c(c4)CCC[C@H]5N4CCN(C[C@H](O)CO)CC4)cc3)c2)cn1 [Example 170]" result="7.00 to 8.00"

Proceeding to the next compound to report its pIC50.
Q) If you can, please state the reported pIC50 value of Cn1ccc(-c2cc(C(=O)N[C@H]3CCC[C@@H]3OCc3ccc(-c4ccc5c(c4)CC(F)(F)C5N4CCN(CCO)CC4)cc3)cnc2N)cc1=O (stereo partly drawn) [Example 87] .
A) > 8.00
